assay: Solubility of amorphous substance in solvent systems (supersaturated solution, oscillated 24 h at room temperature, HPLC); format: physicochemical; conditions: solvent mixture, aqueous with cosolvent or surfactant or cyclodextrin, thermodynamic from solid, Dehydrated alcohol 30%-glycerin 30%-water 40% (w/w); read-out: Solubility
observedProperty: solubility at 24 h
Note: a bare number is incomplete; add the unit.

Query block: Please give the documented solubility at 24 h of Cc1ncsc1-c1ccc(CNC(=O)[C@@H]2C[C@@H](O)CN2C(=O)[C@@H](NC(=O)COCCCCOc2ccc(-c3ccc(N4C(=S)N(c5ccc(C#N)c(C(F)(F)F)c5F)C(=O)C4(C)C)cn3)cc2)C(C)(C)C)cc1
Result block: 650 µg/mL

====

test: Solubility of amorphous substance in solvent systems (supersaturated solution, oscillated 24 h at room temperature, HPLC); format: physicochemical; details: dehydrated alcohol-PEG400-water solvent mixture, aqueous with cosolvent or surfactant or cyclodextrin, thermodynamic from solid, Dehydrated alcohol 10%-PEG400 10%-water 80% (w/w); read-out: Solubility
observedProperty: solubility at 24 h (µg/mL)
Report the figure in µg/mL without appending any unit label.

Query block: Please give the documented solubility at 24 h of Cc1ncsc1-c1ccc(CNC(=O)[C@@H]2C[C@@H](O)CN2C(=O)[C@@H](NC(=O)COCCCCOc2ccc(-c3ccc(N4C(=S)N(c5ccc(C#N)c(C(F)(F)F)c5F)C(=O)C4(C)C)cn3)cc2)C(C)(C)C)cc1
Result block: 10

====

test: Solubility of amorphous substance in solvent systems (supersaturated solution, oscillated 24 h at room temperature, HPLC); format: physicochemical; conditions: solvent mixture, aqueous with cosolvent or surfactant or cyclodextrin, thermodynamic from solid, Dehydrated alcohol 50%-glycerin 30%-water 20% (w/w); read-out: Solubility
observedProperty: solubility at 24 h

Query block: Please give the documented solubility at 24 h of Cc1ncsc1-c1ccc(CNC(=O)[C@@H]2C[C@@H](O)CN2C(=O)[C@@H](NC(=O)COCCCCOc2ccc(-c3ccc(N4C(=S)N(c5ccc(C#N)c(C(F)(F)F)c5F)C(=O)C4(C)C)cn3)cc2)C(C)(C)C)cc1
Result block: > 43.6 mg/mL
